Just for reference, ChEMBL document CHEMBL1134431 is where these values come from.

Dear all, this message contains pIC50 results, target or system Stromelysin-1 (Homo sapiens, UniProt P08254).
pIC50: −log10 of the molar value.
experimental-readout: pIC50

compound="COc1ccc(-c2ccc(S(=O)(=O)N[C@@H](C(=O)O)C3CC[C@H](O)C=C3Br)cc2)cc1 (stereo partly drawn)" experimental_readout=pIC50 test_result=5.42
compound="COc1ccc(-c2ccc(S(=O)(=O)N[C@@H](C(=O)O)C3CCC(O)CC3)cc2)cc1 (stereo partly drawn)" experimental_readout=pIC50 test_result=5.91
compound="COc1ccc(-c2ccc(S(=O)(=O)N[C@@H](C(=O)O)C3C=C[C@@H](O)CC3)cc2)cc1 (stereo partly drawn)" experimental_readout=pIC50 test_result=5.60
